Data origin, for the record: PubChem BioAssay (NCI)

Parameter TGI: see the listing below.
Tested on: U251 CNS
Test: NCI tumour cell line growth inhibition, 48 h

{"molecule": "CN1CCN(Cc2ccc(NC(=O)c3cccc(C#Cc4c(N)ncc5ccc(F)cc45)c3)cc2C(F)(F)F)CC1", "TGI": "1.6 µM"}
{"molecule": "CC1(C)Oc2ccccc2[N+]([O-])=C1c1ccccc1", "TGI": "> 100 µM"}
{"molecule": "COc1ccc(/C=C2\\CCc3ccccc3C2=O)cc1OC", "TGI": "> 100 µM"}
{"molecule": "N#Cc1ccc(NC(=O)Nc2nc3ccc(OC(F)(F)F)cc3s2)cc1", "TGI": "11.4 µM"}
{"molecule": "COc1ccc2c(c1)C=C(C(C)(C)C)NS2(=O)=O", "TGI": "> 100 µM"}
{"molecule": "Cc1cc(C)c(O)c(CNCCCNCc2cc(C)cc(C)c2O)c1", "TGI": "3.89 µM"}
{"molecule": "CNC(=S)N(C1CCCCC1)C1CCCCC1", "TGI": "> 100 µM"}
{"molecule": "CCOC1=NC(C(F)(F)F)(C(F)(F)F)N=C(N2CCCCC2)O1", "TGI": "> 100 µM"}
{"molecule": "COc1ccc(/C=C2/SC(c3c(O)ccc4ccccc34)N(NC(=O)CCCCCCCCC(=O)NN3C(=O)/C(=C\\c4ccc(OC)c(OC)c4)SC3c3c(O)ccc4ccccc34)C2=O)cc1OC (configuration not stated)", "TGI": "96.8 µM"}
{"molecule": "Fc1ccc2c(c1)cc1ccc3cccc4ccc2c1c34", "TGI": "> 100 µM"}
{"molecule": "C#CCN(Cc1nc2cc(C(F)(F)F)ccc2nc1-c1ccccc1)c1ccc(F)cc1", "TGI": "> 100 µM"}
{"molecule": "CC1(C)CN=C(Nc2ccc(F)c(Cl)c2)S1", "TGI": "> 100 µM"}
{"molecule": "COc1ccc2c(c1)C(=O)[C@@](Nc1ccc(C=O)cc1)(OC)[C@@](OC)(c1ccc([N+](=O)[O-])cc1)O2", "TGI": "> 10 µM"}
{"molecule": "S=C1SCN(C2CCCCCCCCCCC2)CN1C1CCCCCCCCCCC1", "TGI": "> 100 µM"}
{"molecule": "CCN(CC)CCOc1ccc(Cc2ccccc2)cc1", "TGI": "> 100 µM"}
{"molecule": "COc1c(Cl)[c]([Hg][O]C(C)=O)c(NCC(C)=O)c(OC)[c]1[Hg][O]C(C)=O", "TGI": "21.9 µM"}
{"molecule": "CCOc1cc(/C=C2\\N=C(c3ccccc3)N(c3nc4ccccc4s3)C2=O)ccc1O", "TGI": "> 100 µM"}
